Source of measurements: PubChem BioAssay AID1241

# TEST_NAME: NF-kB promoter reporter activators, neuronal cells, dose response, cell-based, SH-SY5Y, luciferase (AID 1241)
# CONDITION_CONTEXT: fold induction
Entries and their measured EC50 follow.
ASSAY_METRIC: EC50

> print(dat)
                              smiles.text  data.value
1  CC(=O)Oc1ccc(Cl)cc1/C=C/c1ccc2ccccc2n1      836 nM
2         c1ccc2sc(-c3ccc4c(c3)OCO4)nc2c1      868 nM
3       Fc1ccccc1N1CCN(c2cnc3ccccc3n2)CC1     3330 nM
4             c1ccc2c(c1)nnn1c3ccccc3nc21      346 nM
5      O=C(Nc1nc2ccccc2s1)c1ccc2c(c1)OCO2      138 nM
6     CC1CCN(C(=O)c2cc(-c3ccccc3O)on2)CC1     8790 nM
7     COc1ccc(-c2cc(-c3ccccc3O)[nH]n2)cc1      968 nM
